Assay: qHTS Assay for Lipid Storage Modulators in Drosophila S3 Cells
Conditions: BODIPY lipid droplet fluorescence, 18-24 h, cells fed with added oleic acid; series mostly up to 46.1 µM
The campaign covered roughly 320,000 compounds. About 2,100 (0.66%) were called active. Inconclusive results (about 53%) are left out. The call rests on the fitted dose curve; in most records, active means well fitted inhibition curve with a large enough effect in the signal ratio, with a control signal flat (not every such curve was filed as active); inconclusive means small, poorly fitted or top-dose-only effect, or effect the other way, or a change in a side signal; inactive means flat fitted curve, though single readings scatter; the % refers to the signal ratio. Shown is part of a subset that was picked to be rich in actives.
Your response should consist of one outcome taken from Y = active, N = inactive

# lookup: test call for CCc1ccc(C(=O)COC(=O)CNC(=O)CNC(=O)Cc2ccccc2)cc1
N

Status in this test for Cc1ccc(/C=N/NC(=O)c2nnn(-c3nonc3N)c2-c2ccccc2)o1 ?
N

Please share the test call associated with CC(=O)C(Sc1nnnn1-c1ccc(O)cc1)c1ccccc1 (centres undefined) .
N

Which result was noted for this compound in the test: CCCN1C2CCCC1CC(NC(=S)NCCCOCC)C2 (centres undefined)
N

Status in this test for CN(C)c1ccc(CN(C(=O)c2cccs2)C2CCS(=O)(=O)C2)cc1 (centres undefined) ?
N

Identify the outcome logged in this assay for the compound shown: COc1ccc(CNc2ncccn2)cc1OC
N

Lab log entry: CCC(=O)Nc1ccc(NC(=O)CSc2nnc(-c3ccco3)n2C)cc1 — outcome as called in the assay?
N

Short answer needed: outcome of this test for Cn1nnc(NC(=O)c2ccccc2)n1 ?
N

Assay result, entry CCOC(=O)c1ccccc1NC(=S)N1CCC(C)CC1 — outcome?
N

For CCN(Cc1ccccc1)c1ccc(/C=N/NC(=S)NC(C)C)cc1 , what call appears in the results of this test?
N

How did this test come out for Cc1ccc(-c2c(C(=O)N/N=C/c3c[nH]c4ccccc34)nnn2-c2nonc2N)cc1 ?
Y

# fetch the recorded call for COc1ccc(NC(=O)CN(c2ccc([N+](=O)[O-])cc2)S(=O)(=O)c2ccccc2)c(OC)c1 here
N

Could you check what this test reported for CC1(C)N=C(N)N=C(N)N1c1cccc(C(=O)O)c1 ?
Y

For COc1ccc(NS(=O)(=O)c2cc(NC(=O)COc3ccccc3F)ccc2OC)cc1 , what call appears in the results of this test?
Y

Outcome? Cc1ccc(-c2c(C(=O)N/N=C/c3ccco3)nnn2-c2nonc2N)cc1
N

How was CCCS(=O)(=O)c1nc(S(=O)(=O)c2ccc(C)cc2)c(N2CCC(C)CC2)s1 classified in this test?
N

In this assay, the call recorded for CN(C)S(=O)(=O)c1cccc(COC(=O)CCNC(=O)c2ccc([N+](=O)[O-])cc2)c1 was what?
Y

Tell me the recorded outcome of this test for O=C(CNC(=O)c1ccccc1)OCc1cccc([N+](=O)[O-])c1 .
N

In this assay, the call recorded for Cc1cc(C(=O)N/N=C/c2ccc(Cl)c([N+](=O)[O-])c2)c(C)n1-c1ccc(F)cc1 was what?
N

---

Assay: qHTS Assay for Lipid Storage Modulators in Drosophila S3 Cells;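 on cell number change: cells counted by Cell Tracker Red CMTPX staining in the red channel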
Settings: BODIPY lipid droplet fluorescence, 18-24 h, cells fed with added oleic acid; measured here: cell count max response
Out of some 320,000 compounds screened, about 2,100 (0.66%) were called active. Roughly 53% stayed inconclusive and do not appear here. This excerpt belongs to a sample that is enriched for actives.
Decide using cell number change: a value greater than or equal to -10% is t, a smaller one is f.

Determine whether measured cell number change meets or exceeds -10% for Cn1nnnc1SCC(=O)Nc1ccc(Cl)c(S(=O)(=O)N2CCOCC2)c1
t

# check: cell number change of CCCCCN(C(=O)CCC(=O)OC(C)C(=O)NCc1ccccc1)c1c(N)n(CCCC)c(=O)[nH]c1=O (stereo unspecified) is greater than or equal to -10%
f

Exam item: decide whether the reported cell number change for Cc1c(C(=O)NCc2c(F)cc(F)cc2F)oc2ccc(S(=O)(=O)N3CCOCC3)cc12 is at least -10%.
t

In plain terms: is recorded cell number change at least -10% for N=c1oc2ccccc2cc1C(=O)Nc1ccc(F)cc1 ?
t

Is cell number change for COc1ccc(N2CCN(Cc3nc(N)nc(Nc4ccccc4OC)n3)CC2)cc1 at or above -10%?
f

Check if cell number change >= -10% (inclusive). Item: C/C(=N\Nc1nccnc1Cl)c1ccc([N+](=O)[O-])cc1
f

---

Give measured cell number change for each item. Keep answers brief.
Assay: qHTS Assay for Lipid Storage Modulators in Drosophila S3 Cells;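 on cell number change: cells counted by Cell Tracker Red CMTPX staining in the red channel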
Conditions: BODIPY lipid droplet fluorescence, 18-24 h, cells fed with added oleic acid; measured here: cell count max response
Text: NIH Molecular Libraries Probe Production Centers Network [MLPCN] NIH Chemical Genomics Center [NCGC] […] Triacsin C (Sigma-Aldrich T-4540), an inhibitor of long-chain fatty acyl CoA synthetase that blocks synthesis of triglycerides, was used as a positive control for lipid under-storage. […] Fluorescence was detected by excitation of the fluorophores with a 488-nm laser on an Acumen Explorer (TTP Lab Tech). […] Cells were detected using channel 3 (575-640 nm) with 5-um width and 100-um depth filters. […]
Hit rate of the full screen: of about 320,000 compounds, about 2,100 (0.66%) were called active. Not shown: some 53% with an inconclusive outcome. Shown is part of a subset that was picked to be rich in actives.
API: value field is a number in %; no unit string.

cell number change for CN(C)c1ccc(/C=C2\SC(=O)N(CC(O)Cn3c4ccccc4c4ccccc43)C2=O)cc1 (stereo not drawn) ?
1.42

I have this compound here, CCCCCCCCCCCCOC(=O)C[N+](C)(C)C , and I need its recorded cell number change.
-12.3

Would you kindly share the measured cell number change for CCCC1(C(=O)OC)NC(c2ccco2)C2C(=O)N(c3ccc(C)cc3)C(=O)C21 (stereo not drawn) ?
3.89

Entry CCOCc1[nH]c(=S)[nH]c(=O)c1Cc1ccc(OCC)cc1 : reported cell number change = ?
9.42

What measured cell number change goes with O=C(CN1CCN(c2ccccc2O)CC1)Nc1cc(S(=O)(=O)N2CCCC2)ccc1Cl ?
-12.2

cell number change lookup needed for O=S(=O)(/N=C(\c1ccccc1F)N1CCCCC1)c1ccccc1 , thanks.
-0.464

What value of measured cell number change is listed for COc1ccc(Nc2ncc(C#N)c(N)n2)c(OC)c1 ?
3.36

Any idea what its cell number change is? The compound is CCOC(=O)c1sc(NC(=O)OC)c(C(=O)OC)c1C
11.2

What value of cell number change has been reported for the following compound? CC(NC(=O)CN1CCN(c2ccc(Cl)cc2)CC1)c1ccccc1 (stereo not drawn)
-1.82

Tell me the measured cell number change of CCc1cc(=O)oc2c3c(cc(OCC(=O)NCc4cccnc4)c12)OC(C)(C)CC3 , please.
1.59

Quick one: cell number change of CCC1(C(=O)OC)NC(c2ccco2)C2C(=O)N(c3ccc(C)cc3)C(=O)C21 (stereo not drawn) ?
-0.0174

Which value of cell number change has been reported for Cc1ccccc1NC(=O)COC(=O)c1ccc(S(C)(=O)=O)c([N+](=O)[O-])c1 in the records?
-15.7

cell number change for CCn1c(=O)c2cc(C(=O)N(C)CC(OC)OC)sc2c2ccccc21 ?
7.22

---

Assay: qHTS Assay for Lipid Storage Modulators in Drosophila S3 Cells;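 on cell number change: cells counted by Cell Tracker Red CMTPX staining in the red channel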
Details: BODIPY lipid droplet fluorescence, 18-24 h, cells fed with added oleic acid; measured here: cell count max response
About 2,100 (0.66%) of roughly 320,000 compounds were called active. About 53% were inconclusive and are not listed. What follows is part of a selection rich in actives, with near analogues and random picks from the rest.
Binary classification by cell number change, with 10% as an inclusive lower bound for Yes; all other cases are No.

Entry CC1CN(C(=O)COC(=O)c2cc(Cl)ccc2Cl)CC(C)O1 (stereo not drawn) : is its cell number change no less than 10%?
No

Tell me whether cell number change is at least 10% here: CCn1cc(C(=O)NCCCN(CC(C)C)CC(C)C)c(=O)c2cc(S(=O)(=O)N3CCOCC3)ccc21
Yes

# check: cell number change of CC1CN(Cc2cc(=O)oc3cc(O)c(Cl)cc23)CC(C)O1 (stereo not drawn) is greater than or equal to 10%
No

Does the compound CCCN(C(=O)/C=C/c1nc2ccccc2s1)C1CCS(=O)(=O)C1 (stereo not drawn) have recorded cell number change that is 10% or more?
Yes

Record NC(=O)C1=C[C@@H](c2coc3ccccc3c2=O)C[C@@H](OCc2ccc(CO)cc2)O1 ; criterion: cell number change no lower than 10%. Met?
Yes

Has Cc1cc(C)c(S(=O)(=O)N2CCN(C(=O)N3CCOCC3)CC2)c(C)c1 a recorded cell number change greater than or equal to 10%?
No

Test whether the compound COc1ccccc1NC(=S)NC1CCCCC1 records cell number change of 10% or higher.
Yes

---

For each record, write down the corresponding cell number change.
Assay: qHTS Assay for Lipid Storage Modulators in Drosophila S3 Cells;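 on cell number change: cells counted by Cell Tracker Red CMTPX staining in the red channel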
Details: BODIPY lipid droplet fluorescence, 18-24 h, cells fed with added oleic acid; measured here: cell count max response
About 2,100 (0.66%) of roughly 320,000 compounds were called active. Roughly 53% stayed inconclusive and do not appear here. This is one part of a sample in which actives are shown more often than they occur.
Give the value, in units of %, as a plain number.

Form field: reported cell number change of CCNC(=S)Nc1cccc([N+](=O)[O-])c1
16.5

Given the compound CCOc1ncccc1C(=O)OCC(=O)Nc1cc(S(=O)(=O)N(CC)CC)ccc1C , what is its reported cell number change?
-5.2

Could you tell me which cell number change is on file for CNc1c(NS(=O)(=O)c2ccc(OC)c(Cl)c2)c(=O)oc2ccccc12 ?
-27.3

Returns the measured cell number change for the input compound. Input: COc1ccc(C2C(C(=O)N3CCCCC3)CC(=O)N2c2ccc(OC)cc2)cc1 (stereo unspecified)
-20

Sample CCCCC(C)n1[nH]c(=O)cc1N (stereo unspecified) — what was its cell number change?
-24.5

// query cell number change value for entry CCC(=O)Nc1ccc(S(=O)(=O)Nc2c(NC)c3ccccc3oc2=O)cc1
8.07

Please give the measured cell number change for this compound: CCCNc1c(NS(=O)(=O)c2ccc(NC(=O)CC)cc2)c(=O)oc2ccccc12
-23.3

Given the compound CCOC(=O)C(NCCc1ccccc1F)(NC(C)=O)C(F)(F)F (stereo unspecified) , what is its reported cell number change?
0.435

# cell number change lookup, item COc1cccc(NC(=O)C(C)Sc2nnc(C3CC3)n2C2CC2)c1 (stereo unspecified)
-1.32

Give its cell number change value. Item: CCCNc1c(NS(=O)(=O)c2ccc(C)c(C)c2)c(=O)oc2ccccc12
-4.13

Param item = CCc1ccc(C(=O)c2oc3nc(C)cc(C)c3c2N)cc1 ; retrieve measured cell number change.
-19.5

Would you mind telling me what cell number change value was observed for COc1cccc(NS(=O)(=O)c2ccc(-n3cccn3)cc2)c1 ?
-7.08

Entry under review: N#Cc1cccc(NC(=O)COC(=O)CCc2ccc(S(=O)(=O)N3CCOCC3)cc2)c1 . Reported cell number change?
0.933

Return reported cell number change; argument: CCN(CC)c1ccc(C2NC(=O)NC(C)=C2C(=O)Nc2ccccc2)cc1 (stereo unspecified)
-25.6

Sample C/C(=C\C(=S)Nc1ccccc1)Nc1ccccc1 — what was its cell number change?
-10.3

Reported cell number change for O=c1[nH]c2ccccc2nc1C(Cl)c1ccccc1 (stereo unspecified) : what is it?
23.2

# query: cell number change of entry Cc1cc(C(=O)COC(=O)/C=C/c2cccc(F)c2)c(C)n1C
5.66

Dear colleague, I am looking for the recorded cell number change of the following compound: O=[N+]([O-])c1cccnc1NCCNc1ncc(C(F)(F)F)cc1Cl
-29.3

Request the reported cell number change associated with CCOC(=O)N1CCC(NC(=O)c2ccc(CS(=O)(=O)c3ccccc3C)o2)CC1
-13.7

Fill in: cell number change of CCOC(=O)c1c(NC(=O)CSc2nnc(C)c(=O)[nH]2)sc(C)c1-c1ccc(C)cc1 is ___
18.2

Fill in: cell number change of CCCNc1c(NS(=O)(=O)c2ccc(Br)cc2)c(=O)oc2ccccc12 is ___
-47.1

Quick one: cell number change for Cc1cccc(NCc2ccc(Br)cc2)n1 ?
-13.5

Which value of cell number change has been reported for O=C(c1ccc2c(c1)OCO2)C1CCCN(Cc2cc(F)ccc2-n2cccn2)C1 (stereo unspecified) in the records?
10

Any idea what its cell number change is? The compound is COc1ccc(S(=O)(=O)Nc2c(NC3CCCCC3)c3ccccc3oc2=O)cc1Cl
-20.1

Which value of cell number change has been reported for CC1(CCc2ccccc2)NC(=O)N(CC(=O)O)C1=O (stereo unspecified) in the records?
-3.79

# cell number change lookup, item CN(C)c1ccc(C(=S)N2CCN(Cc3ccccc3)CC2)cc1
-4.36

State the recorded cell number change for this entry: CN(C)C(=O)Nc1cnc2ccccc2c1
12.4

I am curious: what cell number change value has been reported for O=C(CN1CCCCC1)N1CCCc2ccccc21 ?
7.83

# input compound: CCCS(=O)(=O)c1nc(S(=O)(=O)c2ccc(C)cc2)c(N2CC(C)OC(C)C2)s1 (stereo unspecified) ; wanted: its cell number change
-24.5

Which measured cell number change value corresponds to COc1cccc(NS(=O)(=O)c2ccc3c(c2)CCN3C(C)=O)c1 ?
-8.33

Return reported cell number change; argument: COC(=O)[C@H](CC(C)C)NC(=O)NC1CCCCC1C (stereo partly specified)
-4.34
